Data origin, for the record: patent US20230357429A1

target: T1, TCE-22 (anti-CD3 scFv W112A; anti-TROP2 wt)
T1 construct: scFv on the Fab heavy chain; also called TCE-22 (W112A)
method: competition ELISA, TCE on captured CD3
Where no end group is shown, it is not given here.
assayMetric: pIC50
Kindly note that pIC50 refers to -log10 of the concentration in mol/L and answer with the value alone.

binder="VDCGPDGDESILCY (cysteine pairing not given here; also: biotinylated, site not given here, mask peptide for the CD3 scFv) [Peptide-71]" assaymetric=pIC50 reportedresult=4.86
binder="AYCGPEFDESVGCM (cysteine pairing not given here; also: biotinylated, site not given here, mask peptide for the CD3 scFv) [Peptide-72]" assaymetric=pIC50 reportedresult=4.40

Continue with the next binder.
### Prompt Can you share its pIC50? I mean this binder: ASQCLGPEWEVCPY (cysteine pairing not given here; also: biotinylated, site not given here, mask peptide for the CD3 scFv) [Peptide-74]
### Response 4.12
